- procedure.details: Metabolic stability in human liver microsomes
- Assay type: in vitro ADME
- cond: pH 7.4, 1 μM compound, 0.3 mg/mL microsomes, pH7.4, 37° C.
- Experimental: Metabolic stability of selected compounds in human liver microsomes was assessed using the procedure described by Kuhnz and Gieschen, Drug Metab. Dispos. 1998, 26: 1120-1127. Compounds (1 μM) were measured by LC/MS following 0 and 60 minute incubations with human liver microsomes (0.3 mg/mL) at pH7.4 and 37° C.
Task for the reader: assign each of the following compounds its reported half-life at 1 μM.

Briefly, half-life at 1 μM measured for COc1ccccc1N1CCN(CCc2n[nH]c(=O)n2Cc2cccc(F)c2)CC1 [Example 26] : ≥ 60 min

Briefly, half-life at 1 μM measured for COc1ccccc1N1CCN(CCc2n[nH]c(=O)n2Cc2ccccc2)CC1 [Example 13] : ≥ 60 min

Briefly, half-life at 1 μM measured for COc1ccccc1N1CCN(CCc2n[nH]c(=O)n2CC2CCCCC2)CC1 [Example 17] : ≥ 60 min
